Experiment: Luminescence Cell-Based Dose Response HTS to Identify Inhibitors of 5'UTR Stem-Loop Driven Prion Protein mRNA Translation in H4 Neuroglioblastoma Cells. [Related pubchem assays: 1827 (Project Summary), 1813 (Primary HTS)]
Format: functional
The source made the active and inactive calls. No stated cut-off is given here; in the data, actives have a measured EC50 and inactives only a lower limit.

{"columns": ["Structure", "EC50"],
 "data": [
  ["Cc1ccc(-c2cc(C(=O)N/N=C/c3c(C)nn(-c4ccccc4)c3C)[nH]n2)s1", "11.6 µM (active)"],
  ["COc1ccc(C(=O)Nn2c(SCC(=O)NCc3ccco3)nc3ccccc3c2=O)cc1", "8.39 µM (active)"],
  ["c1coc(C2Nc3cccc4cccc(c34)N2)c1", "> 120 µM (not active)"],
  ["Cc1oc2c(C)c3oc(=O)c(CCC(=O)N4C[C@H]5C[C@@H](C4)c4cccc(=O)n4C5)c(C)c3cc2c1C", "> 120 µM (not active)"],
  ["CCc1c(C)sc(NC(=O)CSc2nc3c(c(C(F)(F)F)n2)CCc2ccccc2-3)c1C#N", "> 120 µM (not active)"]
]}
